# assay_text: in vitro
# Assay type: cell-based
# condition_set: L4 larvae, up to 1000 μM, read-out: C. elegans LC50
value_kind: LC50 at 24 h

Solved cases below.
Request: Provide only the value of recorded LC50 at 24 h for Clc1ccc(C(c2ccccc2)N2CCN(C/C=C/c3ccccc3)CC2)cc1 (centres unmarked) [compound 2, reference compound]
Result: > 1000 µM

Request: Provide only the value of recorded LC50 at 24 h for C(=C\c1ccccc1)/CN1CCN(Cc2ccccc2)CC1 [compound 1a, 1-Benzyl-4-[(E)-cinnamyl]piperazine]
Result: > 1000 µM

Request: Provide only the value of recorded LC50 at 24 h for O=C(/C=C/c1ccccc1)N1CCN(Cc2ccccc2)CC1 [compound 3a]
Result: > 1000 µM

Request: Provide only the value of recorded LC50 at 24 h for O=C(/C=C/c1ccc(O)c(O)c1)N1CCN(C(c2ccccc2)c2ccccc2)CC1 [compound 3e]
Result: > 1000 µM

Shift focus to the following entry.
Request: Provide only the value of recorded LC50 at 24 h for CCCSc1ccc2nc(NC(=O)OC)[nH]c2c1 [albendazole, reference compound]
Result: 14.8 µM

---

# System: A. cantonensis L3 larvae
# assay_text: Anthelmintic activity against A. cantonensis infective third-stage larvae (motility/viability, 24 h)
# Format: cell-based, Angiostrongylus cantonensis
# condition_set: Angiostrongylus cantonensis, in vitro, 21 °C, read-out: A. cantonensis EC50 (μM ± SEM) L3
Listing of recorded EC50 by entry.
Respond numerically; units are µM and should not be typed.

Request: Provide only the value of recorded EC50 for Clc1ccc(C(c2ccccc2)N2CCN(C/C=C/c3ccccc3)CC2)cc1 (stereo not shown) [compound 2, reference compound]
Result: 8.6

Shift focus to the following entry.
Request: Provide only the value of recorded EC50 for O=C(/C=C/c1ccccc1)N1CCN(Cc2ccccc2)CC1 [compound 3a]
Result: 18.1
